All figures here come from ChEMBL document CHEMBL1938394.

# Species on record: Homo sapiens
# ASSAY INFO: Selectivity index, ratio of IC50 for human recombinant MAOB to IC50 for human recombinant MAOA
Exercise: state measured Ratio IC50 for each of the molecules provided.
Give bare numbers.

Solved cases (10 shown):
COc1ccc(CCN2CC=CCC2)cc1OC    12.3
Clc1ccc(OCCCN2CC=CCC2)c(Cl)c1    25.4
C1=CCN(CCCc2ccccc2)CC1    9.4
O=[N+]([O-])c1ccc(CCN2CC=CCC2)cc1    7.2
Clc1ccc(CCN2CC=CCC2)c(Cl)c1    11.1
c1ccc(CCN2CCCCC2)cc1    1
COc1ccc(CCN2CC=CCC2)cc1    8
Fc1ccc(CCN2CC=CCC2)cc1    193
C1=CCN(Cc2ccccc2)CC1    41.6
CC1=CCN(CCc2ccccc2)CC1    2

Query block: // lookup Ratio IC50 for C1=CCN(CCc2ccccc2)CC1
Result block: 28.7
